Each entry below carries its reported half-life.
- EXPERIMENT: Half life in human liver microsomes
- Assay type: ADME, Microsome

**Query** Find the recorded half-life belonging to C=C[C@@H]1C[C@]1(NC(=O)[C@@H]1C[C@@H](Oc2cc(OCC)nc3c(Br)c(OC)ccc23)CN1C(=O)[C@@H](CC(=O)Nc1ccccc1)C(C)(C)C)C(=O)NS(=O)(=O)C1CC1 and report it.
**Result** 91 min

**Query** Find the recorded half-life belonging to C=C[C@@H]1C[C@]1(NC(=O)[C@@H]1C[C@@H](Oc2cc(-c3csc(NC(C)C)n3)nc3c(Br)c(OC)ccc23)CN1C(=O)[C@@H](NC(=O)OC1CCCC1)C(C)(C)C)C(=O)O and report it.
**Result** > 300 min

**Query** Find the recorded half-life belonging to C=C[C@@H]1C[C@]1(NC(=O)[C@@H]1C[C@@H](Oc2cc(OCC)nc3c(Cl)cccc23)CN1C(=O)[C@@H](CC(=O)Nc1ccccc1)C(C)(C)C)C(=O)NS(=O)(=O)C1CC1 and report it.
**Result** > 300 min

**Query** Find the recorded half-life belonging to C=C[C@@H]1C[C@]1(NC(=O)[C@@H]1C[C@@H](Oc2cc(OCC)nc3c(Br)c(OC)ccc23)CN1C(=O)[C@@H](CC(=O)NC(C)(C)C)C(C)(C)C)C(=O)NS(=O)(=O)C1CC1 and report it.
**Result** > 300 min

**Query** Find the recorded half-life belonging to C=C[C@@H]1C[C@]1(NC(=O)[C@@H]1C[C@@H](Oc2cc(-c3csc(NC(C)C)n3)nc3c(Br)c(OC)ccc23)CN1C(=O)[C@@H](CC(=O)NC1CCCC1)C(C)(C)C)C(=O)O and report it.
**Result** 207 min

Please turn your attention to the following entry.
**Query** Find the recorded half-life belonging to C=C[C@@H]1C[C@]1(NC(=O)[C@@H]1C[C@@H](Oc2cc(OCC)nc3c(Cl)cccc23)CN1C(=O)[C@@H](CC(=O)NC(C)(C)C)C(C)(C)C)C(=O)NS(=O)(=O)C1CC1 and report it.
**Result** 95 min

---

- EXPERIMENT: Half life in dog liver microsomes
- Format: ADME, Canis lupus familiaris, Microsome
Each entry below carries its reported half-life.

**Query** Find the recorded half-life belonging to C=C[C@@H]1C[C@]1(NC(=O)[C@@H]1C[C@@H](Oc2cc(-c3csc(NC(C)C)n3)nc3c(Br)c(OC)ccc23)CN1C(=O)[C@@H](NC(=O)OC1CCCC1)C(C)(C)C)C(=O)O and report it.
**Result** > 5 h

Please turn your attention to the following entry.
**Query** Find the recorded half-life belonging to C=C[C@@H]1C[C@]1(NC(=O)[C@@H]1C[C@@H](Oc2cc(-c3csc(NC(C)C)n3)nc3c(Br)c(OC)ccc23)CN1C(=O)[C@@H](CC(=O)NC1CCCC1)C(C)(C)C)C(=O)O and report it.
**Result** 2.55 h

---

Each entry below carries its reported Papp A→B.
- EXPERIMENT: Permeability across apical to basolateral side in human Caco2 cells
- Assay type: ADME, cell-based
- STATED_CONDITIONS: Caco-2, read-out: permeability
API: value field is a number in ×10⁻⁶ cm/s; no unit string.

**Query** Find the recorded Papp A→B belonging to C=C[C@@H]1C[C@]1(NC(=O)[C@@H]1C[C@@H](Oc2cc(OCC)nc3c(Br)c(OC)ccc23)CN1C(=O)[C@@H](CC(=O)Nc1ccccc1)C(C)(C)C)C(=O)NS(=O)(=O)C1CC1 and report it.
**Result** 2.4

**Query** Find the recorded Papp A→B belonging to C=C[C@@H]1C[C@]1(NC(=O)[C@@H]1C[C@@H](Oc2cc(-c3csc(NC(C)C)n3)nc3c(Br)c(OC)ccc23)CN1C(=O)[C@@H](NC(=O)OC1CCCC1)C(C)(C)C)C(=O)O and report it.
**Result** 17

**Query** Find the recorded Papp A→B belonging to C=C[C@@H]1C[C@]1(NC(=O)[C@@H]1C[C@@H](Oc2cc(OCC)nc3c(Br)c(OC)ccc23)CN1C(=O)[C@@H](CC(=O)NC(C)(C)C)C(C)(C)C)C(=O)NS(=O)(=O)C1CC1 and report it.
**Result** 7.1

**Query** Find the recorded Papp A→B belonging to C=C[C@@H]1C[C@]1(NC(=O)[C@@H]1C[C@@H](Oc2cc(OCC)nc3c(Cl)cccc23)CN1C(=O)[C@@H](CC(=O)Nc1ccccc1)C(C)(C)C)C(=O)NS(=O)(=O)C1CC1 and report it.
**Result** 3.9

**Query** Find the recorded Papp A→B belonging to C=C[C@@H]1C[C@]1(NC(=O)[C@@H]1C[C@@H](Oc2cc(OCC)nc3c(Cl)cccc23)CN1C(=O)[C@@H](CC(=O)NC(C)(C)C)C(C)(C)C)C(=O)NS(=O)(=O)C1CC1 and report it.
**Result** 3

**Query** Find the recorded Papp A→B belonging to C=C[C@@H]1C[C@]1(NC(=O)[C@@H]1C[C@@H](Oc2cc(-c3csc(NC(C)C)n3)nc3c(Br)c(OC)ccc23)CN1C(=O)[C@@H](CC(=O)NC1CCCC1)C(C)(C)C)C(=O)O and report it.
**Result** 8

---

Each entry below carries its reported half-life.
- EXPERIMENT: Half life in monkey liver microsomes
- Type: ADME, Macaca mulatta, Microsome
- STATED_CONDITIONS: rhesus monkey

**Query** Find the recorded half-life belonging to C=C[C@@H]1C[C@]1(NC(=O)[C@@H]1C[C@@H](Oc2cc(-c3csc(NC(C)C)n3)nc3c(Br)c(OC)ccc23)CN1C(=O)[C@@H](NC(=O)OC1CCCC1)C(C)(C)C)C(=O)O and report it.
**Result** 190 min

Please turn your attention to the following entry.
**Query** Find the recorded half-life belonging to C=C[C@@H]1C[C@]1(NC(=O)[C@@H]1C[C@@H](Oc2cc(-c3csc(NC(C)C)n3)nc3c(Br)c(OC)ccc23)CN1C(=O)[C@@H](CC(=O)NC1CCCC1)C(C)(C)C)C(=O)O and report it.
**Result** 52 min

---

- EXPERIMENT: Volume of distribution at steady state in rat at 2 mg/kg, iv
- Assay type: ADME, organism-based
- Design: dose 2 mg/kg, route intravenous
- STATED_CONDITIONS: in vivo, read-out: Vdss
EXPERIMENTAL_ENDPOINT: Vd (L/kg)
API: value field is a number in L/kg; no unit string.

**Query** Find the recorded Vd belonging to C=C[C@@H]1C[C@]1(NC(=O)[C@@H]1C[C@@H](Oc2cc(-c3csc(NC(C)C)n3)nc3c(Br)c(OC)ccc23)CN1C(=O)[C@@H](CC(=O)NC1CCCC1)C(C)(C)C)C(=O)O and report it.
**Result** 1.3

---

- Tested on: Rattus norvegicus
- EXPERIMENT: AUC (0 to infinity) in rat at 5 mg/kg, po
- Format: ADME, organism-based, Plasma
- Design: time infinity, dose 5 mg/kg, route oral
- STATED_CONDITIONS: in vivo
EXPERIMENTAL_ENDPOINT: AUC (µM·h)
API: value field is a number in µM·h; no unit string.

**Query** Find the recorded AUC belonging to C=C[C@@H]1C[C@]1(NC(=O)[C@@H]1C[C@@H](Oc2cc(-c3csc(NC(C)C)n3)nc3c(Br)c(OC)ccc23)CN1C(=O)[C@@H](CC(=O)NC1CCCC1)C(C)(C)C)C(=O)O and report it.
**Result** 2.1

---

Each entry below carries its reported solubility.
- EXPERIMENT: Solubility of the compound at pH 7.2
- Type: physicochemical
- STATED_CONDITIONS: buffer
API: value field is a number in mg/mL; no unit string.

Check out these entries, answers already filled in.
**Query** Find the recorded solubility belonging to C=C[C@@H]1C[C@]1(NC(=O)[C@@H]1C[C@@H](Oc2cc(OCC)nc3c(Cl)cccc23)CN1C(=O)[C@@H](CC(=O)NC(C)(C)C)C(C)(C)C)C(=O)NS(=O)(=O)C1CC1 and report it.
**Result** 144

**Query** Find the recorded solubility belonging to C=C[C@@H]1C[C@]1(NC(=O)[C@@H]1C[C@@H](Oc2cc(OCC)nc3c(Br)c(OC)ccc23)CN1C(=O)[C@@H](CC(=O)NC(C)(C)C)C(C)(C)C)C(=O)NS(=O)(=O)C1CC1 and report it.
**Result** 83

***
**Query** Find the recorded solubility belonging to C=C[C@@H]1C[C@]1(NC(=O)[C@@H]1C[C@@H](Oc2cc(OCC)nc3c(Cl)cccc23)CN1C(=O)[C@@H](CC(=O)Nc1ccccc1)C(C)(C)C)C(=O)NS(=O)(=O)C1CC1 and report it.
**Result** 56

**Query** Find the recorded solubility belonging to C=C[C@@H]1C[C@]1(NC(=O)[C@@H]1C[C@@H](Oc2cc(OCC)nc3c(Br)c(OC)ccc23)CN1C(=O)[C@@H](CC(=O)Nc1ccccc1)C(C)(C)C)C(=O)NS(=O)(=O)C1CC1 and report it.
**Result** 45
